target: pooled human IgG (human IgG1,2,3 and 4)
propertyMeasured: Enzyme Activity Endpoint Assay (purified): scIgG (ng/µL)
Your answer should be a plain number; it is taken to be in ng/µL.

Reported Enzyme Activity Endpoint Assay (purified): scIgG ( PRT-304 (protein) MVTSVWTKGVTPPTDFIKGEDVFHAPYDAGQGWYDITKTFNGKDDLLCGAATAGNMLHWWFDQNKEYIEAYLKKHPEKQKIMFGDQELLDVRKAINTKGSQKNSELFNYFRDKAFPNLSARRLGVMPDLVLDMFINGYYLNVTKTQTTDVNRTYQEKDKRGGIFDAVFTRGDQSKLLTSRHDFKEKGLKEISDLIKQELTEGKALGLSHTYANVRISHVINLWGADFDSDGNLKAIYVTDSDSNASIGMKKYFVGVNSSGKVAISAKEIKEDNIGAQVLGLFTLSTGQDIWNQTN ) = 0

Reported Enzyme Activity Endpoint Assay (purified): scIgG ( PRT-484 (protein) MVTSVWTKGVTPPTDFRKIVDGNIAYYHAPYKAGQGWYDITKAFDGGDNLLCGAATAGNMLHWWFDQNKDQIEAYLKEHPEKQKIIFNNQELFDLKAAIDTKDDQTNSELFNYFKEKAFPYLSTKHLGVFPDHVLDMFINGYRLSLTNHGPTPVKEGSKDKRGGIFDAVFTRGVQSKLLTSRHDLKNKTLKEISDLIKQELTEGKALALSHTYANVRINHVINLWGADFDSNGNLEAIYVTDSDTNASIGMKKYFVGVNSAGKVAISAKEIEDDNIGAQVLGLFTLSTGQDIWNQTNLEHHHHHH ) = 973

Reported Enzyme Activity Endpoint Assay (purified): scIgG ( PRT-355 (protein) MSQTEDSESLQRLRDIEDFQAEKKMQNVVYTKWLDGVDVKDHDFRKIVDGNEAYYATPLLNGRGFYDINKDFNRDSDKCAAAVAANMFHYWLDINRDNVDRFLRQNPEKHGIIELPDGQLKLSDFLNTYESDHGYRDKSKLFDFISENFNGPVWTDKLLDNYINGYAYNYKYGRLIEDPTKNTSKINFFKEVFNEKILTNNHSIRNQNELSVLLSEALYTGKAIGLSYGPAGTRHSLGHIISVWGADLDADGNVVAIYVTDSDDKKLTIGDERVGLKRYKISTDDENRLRLTAYEETHNTGGQIRGLWTLDTGKYAWADYFDKTEQTGTDQAEQ ) = 367

Reported Enzyme Activity Endpoint Assay (purified): scIgG ( PRT-507 (protein) MITSVWTKGVTPPTDFIKGEDVFHAPYKAGQGWYDITKAFDGGDDLLCGAATAGNMLHWWFDQNKEEIEAYLKKHPEKQKIMFGDQELLDVRKVINTKDSQTNSALFNYFKDKAFPNLSARRLGVMPDLVLDMFINGYYLNVYKTQTTDVNRTYQTKDRRGGIFDAVFTRGDQSKLLTERHDFKEKTLKEISDLIKQELTEGKALGLSHTYANVRINHVINLWGADFDSNGNLEAIYVTDSDSNASIGMKKYFVGVNSAGKVAISAKEIKEDNIGAQVLGLFTLSTGQDIWNQTNLEHHHHHH ) = 0

These measurements were taken from patent US20250027068.
